Property: kon; scope: individual binders
# tested.on: human DLL3 protein (extracellular segment, His tag) (human) (UniProt Q9NYJ7)
# Sequence (Q9NYJ7 27-492): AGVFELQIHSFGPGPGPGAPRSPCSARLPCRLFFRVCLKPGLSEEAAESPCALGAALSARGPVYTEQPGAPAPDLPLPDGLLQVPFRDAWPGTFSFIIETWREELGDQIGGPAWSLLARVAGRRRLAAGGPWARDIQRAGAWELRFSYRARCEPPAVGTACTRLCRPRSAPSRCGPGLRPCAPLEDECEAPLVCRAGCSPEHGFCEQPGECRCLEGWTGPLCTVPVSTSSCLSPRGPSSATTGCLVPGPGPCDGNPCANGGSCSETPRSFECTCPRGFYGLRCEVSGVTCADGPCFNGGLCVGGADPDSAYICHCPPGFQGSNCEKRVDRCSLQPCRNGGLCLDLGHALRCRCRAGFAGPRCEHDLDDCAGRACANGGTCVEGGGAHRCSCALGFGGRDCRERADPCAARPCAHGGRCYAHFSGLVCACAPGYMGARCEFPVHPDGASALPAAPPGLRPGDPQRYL
# experiment.description: SPR (Biacore 8K), antibody captured on Protein A chip, DLL3 antigen in solution, 1:1 Langmuir fit
readout.type: kon (M⁻¹ s⁻¹)

>>> experimental_value("Hab009VL1aVH1-hFc (scFv, part only; not given: scFv linker and human IgG1 Fc, V domains shown, not shown: another chain or arm of the molecule; a dimerising Fc or GST; small tags and cut ends) VL: DIVMTQSPLSLPVTPGEPASISCRASQTISDYLHWYLQKPGQSPQLLIKYASQSISGVPDRFSGSGSGSDFTLKISRVEAEDVGVYYCQQGHSFPLTFGQGTKLEIK VH: EVQLVQSGAEVKKPGASVKVSCKASGYTFTSYWMHWVRQAPGQRLEWMGTIYPGNSDTRYNQKFKDRVTITADTSASTAYMELSSLRSEDTAVYYCTRSYDYGDLDYWGQGTTVTVSS")
"5.96e+06"
>>> experimental_value("Hab008L3H5-hFc (scFv, part only; not given: scFv linker and human IgG1 Fc, V domains shown, not shown: another chain or arm of the molecule; a dimerising Fc or GST; small tags and cut ends) VL: DIVMTQSPDSLAVSLGERATINCKASQNVGTAVAWYQQKPGQSPKLLIFSASIRYTGVPDRFSGSGSGTDFTLTISSLQAEDVAVYYCQQYSSSPYTFGGGTKVEIK VH: EVQLVQSGAEVKKPGASVKVSCKASGYTFTDYYMNWVRRAPGQRLEWMGIINPYNGGTSYNQKFRGRVTITVDKSASTAYMELSSLRSEDTAVYYCSRYDYDYDVEGAMDYWGQGTTVTVSS")
345000
